- measurement-target: recombinant DDB1-CRBN (Homo sapiens, UniProt Q96SW2)
- Construct: His; made in house; host or cells: High Five insect cells (baculovirus made and propagated in SF9 cells)
- assay-method-text: Fluorescence polarization-based competition assay for CRBN binding
- cond: 200 nM CRBN-DDB1, 20 nM pomalidomide-fluorescein tracer 16, triplicates; read-out: FP_CRBN_binding: CRBN binding affinity, EC50
pEC50: −log10 of the molar value.
property: pEC50

| compound | pEC50 |
| --- | --- |
| CN(Cc1ncnn1C)S(=O)(=O)Oc1ccc(Nc2ccc3c(c2)C(=O)N(C2CCC(=O)NC2=O)C3=O)cc1 (stereo not shown) | 6.21 |
| CC1(C)CN(S(=O)(=O)Oc2ccc(C3CCC(=O)NC3=O)cc2)CC2(CCOC2)O1 (stereo not shown) | 5.87 |
| CN(Cc1ccc2[nH]nnc2c1)S(=O)(=O)Oc1ccc(Nc2cccc3c2C(=O)N(C2CCC(=O)NC2=O)C3=O)cc1 (stereo not shown) | 5.67 |
| CN(C1CC1)S(=O)(=O)Oc1ccc(C2CCC(=O)NC2=O)cc1 (stereo not shown) | 6.05 |
| C[C@@H](O)CN(C)S(=O)(=O)Oc1ccc(C2CCC(=O)NC2=O)cc1 (stereo partly shown) | 6.04 |
| Cc1cn2c(n1)CN(S(=O)(=O)Oc1ccc(Nc3cccc4c3C(=O)N(C3CCC(=O)NC3=O)C4=O)cc1)CC2 (stereo not shown) | 6.33 |

I = O=C1CCC(c2ccc(OS(=O)(=O)N3CC(CCO)C3)cc2)C(=O)N1 (stereo not shown)
II = O=C1CCC(N2C(=O)c3ccc(Nc4cccc(OS(=O)(=O)N5CCOCC5)c4)cc3C2=O)C(=O)N1 (stereo not shown)
III = O=C1CCC(N2C(=O)c3ccc(Nc4ccc(OS(=O)(=O)N5CCC(c6ccco6)C5)cc4)cc3C2=O)C(=O)N1 (stereo not shown)
IV = CN(Cc1ccc2[nH]nnc2c1)S(=O)(=O)Oc1ccc(C2CCC(=O)NC2=O)cc1 (stereo not shown)
V = C[C@@H]1C[C@H](C)CN(S(=O)(=O)Oc2cccc(Nc3cccc4c3C(=O)N(C3CCC(=O)NC3=O)C4=O)c2)C1 (stereo partly shown)
Ordering criterion: pEC50; begin with the maximum. Note for the reader: the ranking is given by listing the labels in the order requested. II, IV, I, V, III

I = CN(Cc1ncnn1C)S(=O)(=O)Oc1cccc(C2CCC(=O)NC2=O)c1 (stereo not shown)
II = O=C1CCC(N2C(=O)c3cccc(Nc4cccc(OS(=O)(=O)N5CCC(c6ccncc6)CC5)c4)c3C2=O)C(=O)N1 (stereo not shown)
Lab note: check whether I or II shows the higher recorded pEC50. // caller expects the label of the chosen entry II
(II: 6.58, I: 6.05)

---

- measurement-target: recombinant DDB1-CRBN (Homo sapiens)
- Construct: His; made in house; host or cells: High Five insect cells (baculovirus made and propagated in SF9 cells)
- assay-method-text: Fluorescence polarization-based competition assay for CRBN binding
- cond: 200 nM CRBN-DDB1, 20 nM pomalidomide-fluorescein tracer 16, triplicates; read-out: FP_CRBN_binding: CRBN binding affinity, EC50
property: EC50 (nM)

a = CN(Cc1ncc(C2CC2)o1)S(=O)(=O)Oc1cccc(Nc2cccc3c2C(=O)N(C2CCC(=O)NC2=O)C3=O)c1 (stereo not drawn) [FL3-14]
b = O=C1CCC(N2C(=O)c3ccc(Nc4ccc(OS(=O)(=O)N5CC6(CNC(=O)N6)C5)cc4)cc3C2=O)C(=O)N1 (stereo not drawn) [FL2-9]
c = O=C1CCC(N2C(=O)c3cccc(Nc4cccc(OS(=O)(=O)N5CCC(c6ccco6)C5)c4)c3C2=O)C(=O)N1 (stereo not drawn) [FL3-12]
d = CC(C)(O)C1CCN(S(=O)(=O)Oc2cccc(C3CCC(=O)NC3=O)c2)C1 (stereo not drawn) [FL6-4]
With the 4 compounds above, produce a list ordered by ascending EC50. Note for the reader: the ranking is given by listing the labels in the order requested. b, a, d, c

---

- assay-method-text: CellTiter-Glo cytotoxicity of selected compounds (manual, 72 h)
- Type: cell-based, human
- cond: human, RKO WT cells, up to 10 μM
- Description: Assessment of gene expression and essentiality in RKO WT Fluorescence Polarization‐based competition assay EC50 values were calculated with GraphPad Prism […] the FP value of free tracer. […] instructions. […] For the screening of the whole SuFEx Data visualization was done with seaborn (https://seaborn.pydata.org, version 0.12.2). […] compounds. (F) Analysis of the cytotoxicity of compounds with treatment‐centric features related to FL2‐ […]
property: EC50 at 72 h

Quick check: EC50 at 72 h of CN(Cc1ncc(C2CC2)o1)S(=O)(=O)Oc1ccc(Nc2ccc3c(c2)C(=O)N(C2CCC(=O)NC2=O)C3=O)cc1 (stereo not shown) [FL2-14] ? > 10 µM

---

- measurement-target: recombinant DDB1-CRBN (Homo sapiens, UniProt Q96SW2)
- Construct: His; made in house; host or cells: High Five insect cells (baculovirus made and propagated in SF9 cells)
- assay-method-text: Fluorescence polarization-based competition assay for CRBN binding
- cond: 200 nM CRBN-DDB1, 20 nM pomalidomide-fluorescein tracer 16, triplicates; read-out: FP_CRBN_binding: CRBN binding affinity, EC50
pEC50: −log10 of the molar value.
property: pEC50

Use these answered entries as a reference point.
| molecule | pEC50 |
| --- | --- |
| CC1(C)CN(S(=O)(=O)Oc2ccc(Nc3cccc4c3C(=O)N(C3CCC(=O)NC3=O)C4=O)cc2)CC2(CCOC2)O1 (stereo not shown) [FL4-8] | 5.71 |
| C[C@@H]1C[C@H](C)CN(S(=O)(=O)Oc2ccc(Nc3ccc4c(c3)C(=O)N(C3CCC(=O)NC3=O)C4=O)cc2)C1 (stereo partly shown) [FL2-6] | 5.37 |
| C[C@@H]1C[C@H](C)CN(S(=O)(=O)Oc2ccc(C3CCC(=O)NC3=O)cc2)C1 (stereo partly shown) [FL5-6] | 5.33 |
| CN(Cc1ccc2c(c1)OCO2)S(=O)(=O)Oc1ccc(C2CCC(=O)NC2=O)cc1 (stereo not shown) [FL5-20] | 6.11 |
| O=C1CCC(c2ccc(OS(=O)(=O)N3C[C@@H](F)[C@H](F)C3)cc2)C(=O)N1 (stereo partly shown) [FL5-10] | 6.05 |

P = CN(Cc1ncnn1C)S(=O)(=O)Oc1cccc(Nc2ccc3c(c2)C(=O)N(C2CCC(=O)NC2=O)C3=O)c1 (stereo not shown) [FL1-11]
Q = CN(Cc1ccc2c(c1)OCO2)S(=O)(=O)Oc1ccc(Nc2cccc3c2C(=O)N(C2CCC(=O)NC2=O)C3=O)cc1 (stereo not shown) [FL4-20]
Lab note: check whether P or Q shows the higher recorded pEC50. // caller expects the label of the chosen entry P
(P: 6.29, Q: 5.77)

---

- measurement-target: recombinant DDB1-CRBN (Homo sapiens)
- Construct: His; made in house; host or cells: High Five insect cells (baculovirus made and propagated in SF9 cells)
- assay-method-text: Fluorescence polarization-based competition assay for CRBN binding
- cond: 200 nM CRBN-DDB1, 20 nM pomalidomide-fluorescein tracer 16, triplicates; read-out: FP_CRBN_binding: CRBN binding affinity, EC50
- Excerpt: Prior to screening the compound library in the isogenic CPA, we assessed their CRBN binding affinities using a fluorescence-polarization-based competition assay with recombinant DDB1-CRBN and the fluorescent tracer 16 (Figure S2). […] We also assessed the cytotoxicity of the CRBN binders in RKO wild-type (WT) cells to determine the appropriate treatment concentration. […] Fluorescence Polarization‐based competition assay […]
pEC50: −log10 of the molar value.
property: pEC50

| compound | result |
| --- | --- |
| CN(C)c1ncc(CN(C)S(=O)(=O)Oc2ccc(Nc3cccc4c3C(=O)N(C3CCC(=O)NC3=O)C4=O)cc2)cn1 (stereo not drawn) [FL4-18] | 5.79 |
| CN(Cc1ccc2c(c1)OCO2)S(=O)(=O)Oc1cccc(C2CCC(=O)NC2=O)c1 (stereo not drawn) [FL6-20] | 6.21 |

A = CN(Cc1ccc2[nH]nnc2c1)S(=O)(=O)Oc1cccc(Nc2cccc3c2C(=O)N(C2CCC(=O)NC2=O)C3=O)c1 (stereo not drawn) [FL3-15]
B = O=C1CCC(N2C(=O)c3cccc(Nc4ccc(OS(=O)(=O)N5CC6(CNC(=O)N6)C5)cc4)c3C2=O)C(=O)N1 (stereo not drawn) [FL4-9]
Lab note: check whether A or B shows the higher recorded pEC50. // caller expects the label of the chosen entry B

A = C[C@@H](O)CN(C)S(=O)(=O)Oc1ccc(Nc2ccc3c(c2)C(=O)N(C2CCC(=O)NC2=O)C3=O)cc1 (stereo partly drawn) [FL2-1]
B = O=C1CCC(N2C(=O)c3cccc(Nc4ccc(OS(=O)(=O)N5CCC(c6ccco6)C5)cc4)c3C2=O)C(=O)N1 (stereo not drawn) [FL4-12]
Lab note: check whether A or B shows the higher recorded pEC50. // caller expects the label of the chosen entry A
